- Assay method text: chemical genetic growth profiling, strain panel (AID 1159580);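 note: tested at 20 µM; growth read once vehicle control cultures reached saturation at 30 °C; lower values mean less growth of the strain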
- Measurement conditions: S. cerevisiae deletion strains, growth OD, locus YJR043C, strain POL32
The campaign covered roughly 5,500 compounds. About 2,000 (36%) were called active. About 18% were inconclusive and are not listed. Cut-off read from the data, not from the text of the source: active = normalized growth mostly below about 0.91 (no sharp cut-off); inconclusive = no clear call, values can overlap the other calls; inactive = mostly above about 0.92. The list shows a part of the results.
Field 'call' accepts active, inactive

## Input What classification did `COC(=O)c1c(C)cc(OC(=O)c2c(C)cc(O)c(C=O)c2O)c(C)c1O` end up with in this test?
## Output inactive

## Input What classification did CC(CCC(=O)O)[C@H]1CCC2C3C[C@H](O)[C@@H]4C[C@H](O)CC[C@]4(C)C3CC[C@@]21C (some centres not stated) end up with in this test?
## Output inactive

## Input What classification did `O=C(Nc1nncs1)c1ccncc1` end up with in this test?
## Output inactive

## Input What classification did `Nc1ccncc1` end up with in this test?
## Output inactive

## Input What classification did CC(CCC(=O)O)[C@H]1CCC2C3CC[C@@H]4C[C@H](O)CC[C@]4(C)C3C[C@H](O)[C@@]21C (some centres not stated) end up with in this test?
## Output inactive

## Input What classification did `CC(=O)c1ccc(-c2ccc(Cl)c(Cl)c2)o1` end up with in this test?
## Output active

## Input What classification did `O=C(O)Cc1ccccc1I` end up with in this test?
## Output inactive

## Input What classification did `N[C@H](Cc1ccccc1)C(=O)O` end up with in this test?
## Output inactive

## Input What classification did `CCOC(=O)[C@H](CCc1ccccc1)N[C@@H](C)C(=O)N1Cc2ccccc2C[C@H]1C(=O)O` end up with in this test?
## Output inactive

## Input What classification did `O=C1/C(=C/c2ccc(Cl)cc2)COc2ccc(F)cc21` end up with in this test?
## Output inactive

## Input What classification did `O=C(O)Cc1cc(I)c(Oc2cc(I)c(O)c(I)c2)c(I)c1` end up with in this test?
## Output inactive

## Input What classification did CC(CCC(=O)O)[C@H]1CCC2C3CC[C@@H]4CCCC[C@]4(C)C3CC[C@@]21C (some centres not stated) end up with in this test?
## Output inactive

## Input What classification did COc1cc(S(C)=O)ccc1-c1nc2ncccc2[nH]1 (configuration not stated) end up with in this test?
## Output inactive

## Input What classification did `COC(=O)c1c(C)cc(OC(=O)c2c(C)c(Cl)c(O)c(C=O)c2O)c(C)c1O` end up with in this test?
## Output inactive

## Input What classification did COC(=O)CCC(C)[C@H]1CCC2C3C(C[C@H](O)[C@@]21C)[C@@]1(C)CC[C@@H](O)C[C@H]1C[C@H]3O (some centres not stated) end up with in this test?
## Output inactive

## Input What classification did `O=C(Nc1nccs1)c1ccc([N+](=O)[O-])cc1` end up with in this test?
## Output inactive

## Input What classification did C[C@@H]1O[C@@H](O[C@H]2C[C@@H](O)[C@]3(CO)C4C(CC[C@]3(O)C2)[C@@]2(O)CC[C@H](C3=CC(=O)OC3)[C@@]2(C)C[C@H]4O)[C@H](O)[C@H](O)[C@H]1O (some centres not stated) end up with in this test?
## Output inactive
